- System: Hepatitis C virus
- assay_protocol: Antiviral activity against HCV subtype 1b expressing wild type NS3/4A protease infected in ET cells after 72 hrs
- Format: functional, organism-based, Hepacivirus hominis
- particulars: genotype 1b
Friendly reminder: EC50 below 1 nM is Condition met, at or above is Condition not met.

Worked set:
[
  {
    "line_notation": "COc1ccc2c(O[C@@H]3C[C@H]4C(=O)N[C@]5(C(=O)NS(=O)(=O)C6CC6)C[C@H]5/C=C\\CCCCC[C@H](N5CCOC5=O)C(=O)N4C3)cc(-c3nc(C4CC4)cs3)nc2c1C",
    "group_label": "Condition not met"
  },
  {
    "line_notation": "CC(C)(C)OC(=O)N[C@H]1CCCCC/C=C\\[C@@H]2C[C@@]2(C(=O)NS(=O)(=O)C2CC2)NC(=O)[C@@H]2C[C@@H](OC(=O)N3Cc4cccc(F)c4C3)CN2C1=O",
    "group_label": "Condition met"
  },
  {
    "line_notation": "COc1ccc2c(O[C@@H]3C[C@H]4C(=O)N[C@]5(C(=O)NS(=O)(=O)C6CC6)C[C@H]5/C=C\\CCCCC[C@H](NC(=O)C5(OC)CCCC5)C(=O)N4C3)cc(-c3nc(C4CC4)cs3)nc2c1C",
    "group_label": "Condition met"
  },
  {
    "line_notation": "CCC[C@H](NC(=O)[C@@H]1[C@H]2CCC[C@H]2CN1C(=O)[C@@H](NC(=O)[C@@H](NC(=O)c1cnccn1)C1CCCCC1)C(C)(C)C)C(=O)C(=O)NC1CC1",
    "group_label": "Condition not met"
  },
  {
    "line_notation": "COc1ccc2c(O[C@@H]3C[C@H]4C(=O)N[C@]5(C(=O)NS(=O)(=O)C6CC6)C[C@H]5/C=C\\CCCCC[C@H](N5CCCC5=O)C(=O)N4C3)cc(-c3nc(C4CC4)cs3)nc2c1C",
    "group_label": "Condition not met"
  },
  {
    "line_notation": "COc1ccc2c(O[C@@H]3C[C@H]4C(=O)N[C@]5(C(=O)NS(=O)(=O)C6CC6)C[C@H]5/C=C\\CCCCC[C@H](NC(=O)C(=O)N5CCCCC5)C(=O)N4C3)cc(-c3nc(C4CC4)cs3)nc2c1C",
    "group_label": "Condition met"
  },
  {
    "line_notation": "COc1ccc2c(O[C@@H]3C[C@H]4C(=O)N[C@]5(C(=O)NS(=O)(=O)C6CC6)C[C@H]5/C=C\\CCCCC[C@H](N/C(=N\\C#N)NC(C)(C)C)C(=O)N4C3)cc(-c3nc(C4CC4)cs3)nc2c1C",
    "group_label": "Condition met"
  }
]

Note: attention shifts to another entry.
Query string: Hello, I'm reviewing records and need to know if EC50 of COc1ccc2c(O[C@@H]3C[C@H]4C(=O)N[C@]5(C(=O)NS(=O)(=O)C6CC6)C[C@H]5/C=C\CCCCC[C@H](NC(=O)N(C)C)C(=O)N4C3)cc(-c3nc(C4CC4)cs3)nc2c1C is below 1 nM. Could you check?
Result string: Condition met
